Recorded measurements of pIC50, one per entry
target: KRAS G12C protein (Homo sapiens, UniProt P01116, G12C); assay: Nucleotide exchange assay, Method III (TR-FRET, association of KRAS G12C with Raf-RBD, SOS1-mediated exchange); assay type: biochemical; settings: overnight (18 hr) incubation with GDP-bound KRAS G12C
Sequence (P01116 1-188 isoform P01116-2 G12C): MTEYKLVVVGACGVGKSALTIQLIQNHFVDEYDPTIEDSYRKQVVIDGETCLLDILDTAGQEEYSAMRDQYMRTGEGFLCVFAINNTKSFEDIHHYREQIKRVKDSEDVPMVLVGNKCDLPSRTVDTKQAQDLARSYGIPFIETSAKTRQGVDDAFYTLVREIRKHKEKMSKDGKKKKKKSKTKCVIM
pIC50: −log10 of the molar value.

Example compounds with recorded pIC50:
C=CC(=O)N1CCN(c2c(C(=O)NC)c(=O)n(-c3c(C)ccnc3C(C)C)c3nc(-c4c(O)cccc4F)c(F)cc23)C[C@H]1C (single isomer, unassigned) [82 (Isomer A)]	≥ 6.52
C=CC(=O)N1CCN(c2c(S(C)(=O)=O)c(=O)n(-c3c(C)ccnc3C(C)C)c3nc(-c4c(C)ccc5[nH]ncc45)c(F)cc23)CC1 (single isomer, unassigned) [124 (Isomer B)]	≤ 5.52

Item: C=CC(=O)N1CCN(c2c(C(=O)NC)c(=O)n(-c3c(C)ccnc3C(C)C)c3nc(-c4c(O)cccc4F)c(F)cc23)[C@@H](C)C1 (single isomer, unassigned) [76 (Isomer A)] | pIC50: 5.52 to 6.52

Item: C=CC(=O)N1CCN(c2c(S(C)(=O)=O)c(=O)n(-c3c(C)ccnc3C(C)C)c3nc(-c4cccc5sc(N)nc45)c(F)cc23)C[C@H]1C (single isomer, unassigned) [249 (Isomer A)] | pIC50: ≥ 6.52

Item: C=CC(=O)N1CCN(c2c(S(C)(=O)=O)c(=O)n(-c3c(C)ccnc3C(C)C)c3c(F)c(-c4c(C)ccc5[nH]ncc45)c(Cl)cc23)CC1 (single isomer, unassigned) [187 (Isomer D)] | pIC50: ≤ 5.52

====

molecular target: KRAS G12C protein (Homo sapiens, UniProt P01116, G12C); test: Nucleotide exchange assay, Method I (BODIPY-GDP fluorescence, SOS1-mediated exchange of GDP for GTP); assay type: biochemical; conditions: 30 minutes incubation with KRAS G12C/BODIPY-GDP
Sequence (P01116 2-169 isoform P01116-2 G12C): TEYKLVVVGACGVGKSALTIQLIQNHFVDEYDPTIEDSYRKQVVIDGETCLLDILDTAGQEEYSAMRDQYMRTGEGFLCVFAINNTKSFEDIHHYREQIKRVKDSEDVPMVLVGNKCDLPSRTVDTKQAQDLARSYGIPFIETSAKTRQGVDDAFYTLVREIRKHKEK
pIC50: −log10 of the molar value.
endpoint-label: pIC50

C=CC(=O)N1CCC(n2c(=O)c(=O)n(-c3c(C)ccnc3C(C)C)c3nc(-c4c(O)cccc4F)c(F)cc32)CC1 (single isomer, unassigned) [1 (Isomer A)]	5.52 to 6.52

Next, consider the following compound.
Measured pIC50 for this entry C=CC(=O)N1CCC(n2c(=O)c(=O)n(-c3c(C)ccnc3C(C)C)c3nc(-c4c(O)cccc4F)c(F)cc32)CC1 (single isomer, unassigned) [1 (Isomer B)] on KRAS G12C protein (Homo sapiens, UniProt P01116, G12C): ≤ 5.52

====

Test system: MIA PaCa-2
Assay: Cell proliferation assay panel (Cell Titer-Glo), MIA PaCa-2
Format: cell-based
Conditions: Homo sapiens, MIA PaCa-2, 72 h
Procedure: Potency of compounds was determined in cell proliferation assays in a panel of cancer cell lines. Cells were seeded in 384-well plates (Corning, Cat. #3765) at specified densities in 40 μL of culture medium and incubated overnight at 37° C. in a 5% CO2 incubator (culture conditions). […] Contents were mixed, the plate was incubated for 10 min at room temperature and luminescence was measured. The IC50 value of each test compound was calculated with XLFit curve fitting software. […]
Recorded measurements of IC50, one per entry

Example compounds with recorded IC50:
C=CC(=O)N1CCN(c2c(C(=O)NC)c(=O)n(-c3c(C)ccnc3C(C)C)c3nc(-c4c(O)cccc4F)c(F)cc23)CC1 (single isomer, unassigned) [84 (Isomer B)]	300 to 3000 nM
C=CC(=O)N1CCN(c2c(S(C)(=O)=O)c(=O)n(-c3c(C)ccnc3C(C)C)c3nc(-c4cccc5sc(N)nc45)c(F)cc23)C[C@H]1C (single isomer, unassigned) [249 (Isomer A)]	300 to 3000 nM
C=CC(=O)N1CCN(c2c(S(C)(=O)=O)c(=O)n(-c3c(C)ccnc3C(C)C)c3nc(-c4c(C)ccc5[nH]ncc45)c(F)cc23)CC1 (single isomer, unassigned) [124 (Isomer A)]	300 to 3000 nM
C=CC(=O)N1CCN(c2c(C(=O)NC)c(=O)n(-c3c(C)ccnc3C(C)C)c3nc(-c4cccc5sc(N)nc45)c(F)cc23)CC1 (single isomer, unassigned) [254 (Isomer A)]	≥ 3000 nM
C=CC(=O)N1CCN(c2c(C(=O)NC)c(=O)n(-c3c(C)ccnc3C(C)C)c3nc(-c4c(C)ccc5[nH]ncc45)c(F)cc23)CC1 (single isomer, unassigned) [116 (Isomer A)]	≥ 3000 nM
C=CC(=O)N1CCN(c2c(S(C)(=O)=O)c(=O)n(-c3c(C)ccnc3C(C)C)c3nc(-c4cccc5sc(N)nc45)c(F)cc23)CC1 (single isomer, unassigned) [250 (Isomer A)]	300 to 3000 nM
C=CC(=O)N1CCN(c2c(S(C)(=O)=O)c(=O)n(-c3c(C)ccnc3C(C)C)c3c(F)c(-c4c(C)ccc5[nH]ncc45)c(Cl)cc23)CC1 (single isomer, unassigned) [187 (Isomer C)]	300 to 3000 nM
C=CC(=O)N1CCN(c2c(C(=O)NCC)c(=O)n(-c3c(C)ccnc3C(C)C)c3nc(-c4c(O)cccc4F)c(F)cc23)CC1 (single isomer, unassigned) [293 (Isomer A)]	300 to 3000 nM

Item: C=CC(=O)N1CCN(c2c(S(C)(=O)=O)c(=O)n(-c3c(C)ccnc3C(C)C)c3nc(-c4c(O)cccc4F)c(F)cc23)CC1 (single isomer, unassigned) [123 (Isomer A)] | IC50: 300 to 3000 nM

These data points were gathered from patent US20230026856A1.
